The measurements presented in this section are drawn from the supplement of paper PMC4100887.

compounds and their reported relative cell viability
Tested on: IMR-90
test_protocol: relative cell viability (ATPlite) vs untreated control (fraction); higher = less toxic
condition_context: 1 µM; 72 h
quantity_measured: relative cell viability

INSERT INTO results (compound, test_target, quantity_measured, observed_measurement) VALUES
  ('O=Nc1c(-c2c(O)[nH]c3cc(Br)ccc23)[nH]c2ccccc12', 'IMR-90', 'relative cell viability', 0.935),
  ('N#C/C(=C(/N)Sc1ccccc1N)c1cccc(C(O)c2ccncc2)c1 (configuration not stated)', 'IMR-90', 'relative cell viability', 1.02),
  ('COc1cc2ncnc(N3CCN(C(=O)Nc4ccc(Oc5ccccc5)cc4)CC3)c2cc1OC', 'IMR-90', 'relative cell viability', 1.01),
  ('COc1ccc(-c2cnc3c(-c4ccsc4)cnn3c2)cc1', 'IMR-90', 'relative cell viability', 0.993),
  ('CCCCCCCCCCCCCCCCn1cc[n+](Cc2ccccc2)c1C', 'IMR-90', 'relative cell viability', 0.948),
  ('CC[C@H](CO)Nc1nc(NCc2ccc(-c3ccccn3)cc2)c2ncn(C(C)C)c2n1 [CR8, (R)-Isomer]', 'IMR-90', 'relative cell viability', 0.297),
  ('COc1cc2ncc(-c3ccccc3)nc2cc1OC', 'IMR-90', 'relative cell viability', 1.1),
  ('COc1ccc(COc2ccc(Cc3cnc(N)nc3N)cc2OC)cc1', 'IMR-90', 'relative cell viability', 1.05),
  ('CNc1cc2c(Nc3cccc(Br)c3)ncnc2cn1', 'IMR-90', 'relative cell viability', 1.04),
  ('Nc1n[nH]c(N)c1N=Nc1ccc(O)cc1', 'IMR-90', 'relative cell viability', 0.93),
  ('NC(=O)c1ccc2nc(-c3ccc(Oc4ccc(Cl)cc4)cc3)[nH]c2c1', 'IMR-90', 'relative cell viability', 1.05),
  ('CC(=O)c1ccc(N2CCOCC2)cc1O', 'IMR-90', 'relative cell viability', 1.02),
  ('NC(=O)Nc1cc(-c2ccccc2)sc1C(N)=O', 'IMR-90', 'relative cell viability', 0.982),
  ('N#CC(c1ccnc(NCCc2cccnc2)n1)c1nc2ccccc2s1 (configuration not stated)', 'IMR-90', 'relative cell viability', 1.01),
  ('CN[C@@H]1C[C@H]2O[C@@](C)([C@@H]1OC)n1c3ccccc3c3c4c(c5c6ccccc6n2c5c31)C(=O)N[C@H]4O', 'IMR-90', 'relative cell viability', 0.101),
  ('O=C(Nc1cc(C(F)(F)F)cc(C(F)(F)F)c1)c1cc(Cl)ccc1O', 'IMR-90', 'relative cell viability', 0.878),
  ('COc1ccc(CNc2nc(N(CCO)CCO)nc3c2ncn3C(C)C)cc1', 'IMR-90', 'relative cell viability', 0.927);

###

Tested on: K562
test_protocol: relative cell viability (ATPlite) vs untreated control, with imatinib (fraction); higher = less toxic
condition_context: 1 µM; 72 h; imatinib 0.125 µM
compounds and their reported relative cell viability
quantity_measured: relative cell viability

INSERT INTO measurements (compound, observed_measurement) VALUES
  ('CCOC(=O)c1c(C)[nH]c(/C=C2\C(=O)Nc3ccccc32)c1C', 0.845),
  ('OCC(O)CCO/N=C1\C(c2c(O)[nH]c3ccccc23)=Nc2ccccc21 (stereo unspecified)', 0.644),
  ('CCC(CO)Nc1nc(NCc2ccccc2)c2ncn(C(C)C)c2n1 [Roscovitine, (S)-Isomer]', 0.729),
  ('Cc1cncc2cccc(S(=O)(=O)N3CCCN(C(=O)CN)C[C@@H]3C)c12', 0.669),
  ('Cn1sc(=O)n(Cc2ccccc2)c1=O', 0.704),
  ('COc1cc2ncnc(Nc3ccc(Oc4ccccc4)cc3)c2cc1OC', 0.692),
  ('O=C(O)c1ccc2c3c1cccc3c(=O)n1c3ccccc3nc21', 0.811),
  ('COc1cc(Nc2ncc3ccn(-c4cccc(CCC#N)c4)c3n2)cc(OC)c1OC', 0.459),
  ('COc1ccc(Cl)cc1NC(=O)Nc1cc(C)nc2ccccc12', 0.798),
  ('c1ccc(-c2cnc(Nc3ccc(OCCN4CCCC4)cc3)s2)cc1', 0.797),
  ('O=c1c2ccccc2[nH]c(=S)n1CCN1CCC(=C(c2ccc(F)cc2)c2ccc(F)cc2)CC1', 0.768),
  ('NC(=O)Nc1sc(-c2ccccc2)cc1C(N)=O', 0.695),
  ('CC[C@H](CO)Nc1nc(NCc2ccc(-c3ccccn3)cc2)c2ncn(C(C)C)c2n1 [CR8, (R)-Isomer]', 0.0846),
  ('O=c1[nH][nH]c2nnc(-c3c(-c4ccccc4)nn4ccccc34)cc12 [ERK Inhibitor II, Negative control]', 0.758),
  ('NS(=O)(=O)c1ccc(N=Nc2c(O)[nH]c3ccc(Br)cc23)cc1', 0.825),
  ('CN[C@@H]1C[C@H]2O[C@@](C)([C@@H]1OC)n1c3ccccc3c3c4c(c5c6ccccc6n2c5c31)C(=O)N[C@H]4O', 0.14);
